Assay: In vivo pharmacokinetic parameters of (R)-HZ05
Set-up: species or system C57B1/6N mice
Details: female, C57B1/6N, mouse, plasma, sc; mice; s.c, dose 50 mg kg-1; read-out: AUC 0-h
assay-endpoint: AUC (µM·h)
Enter your answer as a number in µM·h; do not include the unit.

Asked: Looking for the measured AUC of O=C(N[C@@H]1CCCc2c1cnn2-c1ccccc1F)c1onc2c1CCCC2 [(R)-HZ05] , can you help?
Given back: 30

====

# remaining activity at 10 µM annotations
Target: recombinant human DHODH (Homo sapiens, UniProt Q02127)
Assay: Endpoint DHODH enzyme assay (coenzyme Q10, DCIP)
Format: biochemical
Design: purchased Prospecbio ENZ-642
Details: compound at 10 µM; Supplementary Table 6, 30,000 compound library
Sequence (Q02127 31-395 limits assumed): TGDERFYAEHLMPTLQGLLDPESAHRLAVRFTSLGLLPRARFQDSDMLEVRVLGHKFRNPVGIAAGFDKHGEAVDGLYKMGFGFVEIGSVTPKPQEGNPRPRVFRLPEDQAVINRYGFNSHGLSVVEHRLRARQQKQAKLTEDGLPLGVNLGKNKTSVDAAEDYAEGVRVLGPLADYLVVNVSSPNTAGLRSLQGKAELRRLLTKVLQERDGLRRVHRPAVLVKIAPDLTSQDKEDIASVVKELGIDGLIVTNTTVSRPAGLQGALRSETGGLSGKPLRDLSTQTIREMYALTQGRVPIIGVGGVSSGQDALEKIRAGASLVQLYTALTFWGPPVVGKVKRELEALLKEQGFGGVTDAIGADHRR

{"columns": ["compound", "remaining activity at 10 µM"],
 "data": [
  ["NN=C1CCCc2c1[nH]c1ccc(Br)cc21", "58.2%"],
  ["CN(C)c1ccc(C=Cc2nc3ccccc3c(=O)[nH]2)cc1", "82.5%"],
  ["Brc1ccc2[nH]c3c(c2c1)CCCC3NCCc1ccccc1 (stereo not drawn)", "55.7%"]
]}

Asked: // lookup remaining activity at 10 µM | system=recombinant human DHODH (Homo sapiens, UniProt Q02127) | key= CC1CCC(NC2CCCc3c2[nH]c2ccc([N+](=O)[O-])cc32)CC1 (stereo not drawn)
Given back: 56.8%

Asked: // lookup remaining activity at 10 µM | system=recombinant human DHODH (Homo sapiens, UniProt Q02127) | key= COc1ccc(S(=O)(=O)Nc2ccc(I)cc2C)cc1
Given back: 99.2%

Asked: // lookup remaining activity at 10 µM | system=recombinant human DHODH (Homo sapiens, UniProt Q02127) | key= Cc1ccc2[nH]c3c(c2c1)CCCC3NC1CCCCC1 (stereo not drawn)
Given back: 12.6%

Asked: // lookup remaining activity at 10 µM | system=recombinant human DHODH (Homo sapiens, UniProt Q02127) | key= COc1ccccc1CC(C)NC1CCCc2c1[nH]c1ccc([N+](=O)[O-])cc21 (stereo not drawn)
Given back: 52.4%

Asked: // lookup remaining activity at 10 µM | system=recombinant human DHODH (Homo sapiens, UniProt Q02127) | key= COc1ccccc1NC1=CC(=O)CC(c2ccccc2)C1 (stereo not drawn)
Given back: 100%

Asked: // lookup remaining activity at 10 µM | system=recombinant human DHODH (Homo sapiens, UniProt Q02127) | key= Cc1ccc(OCC(=O)NN=Cc2ccc(-c3ccc(Br)cc3)o2)cc1
Given back: 98.4%

====

Target: recombinant human DHODH (Homo sapiens, UniProt Q02127)
Test: Kinetic DHODH enzyme assay (3,4-dimethoxy-5-methyl-p-benzoquinone, DCIP)
Conditions: Fig. 5a; average of three independent repeats ± SD
Sequence (Q02127 29-395 limits assumed): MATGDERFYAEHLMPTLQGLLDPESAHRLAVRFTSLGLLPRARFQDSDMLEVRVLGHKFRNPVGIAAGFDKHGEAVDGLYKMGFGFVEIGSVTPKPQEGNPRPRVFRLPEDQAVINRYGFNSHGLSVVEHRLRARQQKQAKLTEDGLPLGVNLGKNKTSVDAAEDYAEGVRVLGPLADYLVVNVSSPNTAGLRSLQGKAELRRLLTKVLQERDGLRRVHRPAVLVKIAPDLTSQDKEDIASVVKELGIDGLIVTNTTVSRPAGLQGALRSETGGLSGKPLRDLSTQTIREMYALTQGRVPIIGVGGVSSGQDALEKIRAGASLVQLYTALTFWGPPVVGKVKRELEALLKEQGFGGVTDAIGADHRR
# pIC50 annotations
Would you please state pIC50, meaning minus log10 of the concentration in mol/L, as a bare number?

Consider the following illustrative entries.
{"columns": ["molecule", "pIC50"],
 "data": [
  ["O=C(N[C@@H]1CCCc2c1cnn2-c1ccccc1F)c1onc2c1CCCC2 [(R)-HZ05]", 7.96],
  ["O=C(NC1CCCc2c1cnn2-c1ccccc1F)c1onc2c1CCCC2 (centres unmarked)", 7.49],
  ["O=C(N[C@H]1CCCc2c1cnn2-c1ccccc1F)c1onc2c1CCCC2 [(S)-HZ05]", 5.17]
]}

# next molecule below
Asked: // lookup pIC50 | system=recombinant human DHODH (Homo sapiens, UniProt Q02127) | key= O=C(NC1CCCc2c1cnn2-c1ccc(F)cc1F)c1onc2c1CCCC2 (centres unmarked)
Given back: 6.54

====

Experiment: In vivo pharmacokinetic parameters of (R)-HZ05
Parameters: species or system C57B1/6N mice
Details: female, C57B1/6N, mouse, plasma, sc; mice; s.c, dose 50 mg kg-1; read-out: t (h) (half-life) (converted)
assay-endpoint: half-life
Express your answer as a number followed by its unit.

Asked: Looking for the measured half-life of O=C(N[C@@H]1CCCc2c1cnn2-c1ccccc1F)c1onc2c1CCCC2 [(R)-HZ05] , can you help?
Given back: 2.5 h

====

Assay: In vivo pharmacokinetic parameters of (R)-HZ05
Parameters: species or system C57B1/6N mice
Conditions: female, C57B1/6N, mouse, plasma, iv; mice; i.v, dose 5 mg kg-1
assay-endpoint: Cmax (µM)
Enter your answer as a number in µM; do not include the unit.

Asked: Looking for the measured Cmax of O=C(N[C@@H]1CCCc2c1cnn2-c1ccccc1F)c1onc2c1CCCC2 [(R)-HZ05] , can you help?
Given back: 6.1

====

Molecular target: recombinant human DHODH (Homo sapiens)
Test: Endpoint DHODH enzyme assay (coenzyme Q10, DCIP)
Format: biochemical
Parameters: purchased Prospecbio ENZ-642
Details: compound at 10 µM; Supplementary Table 5, 20,000 compound library
assay-endpoint: remaining DHODH activity (%) Average
Enter your answer as a number in %; do not include the unit.

Consider the following illustrative entries.
{"columns": ["compound", "test-target", "assay-endpoint", "unit-of-measurement", "test-value"],
 "data": [
  ["CCOC(=O)C1=C(C)NC2=C(C(=O)CC(c3ccco3)C2)C1c1cccs1 (stereo not drawn)", "recombinant human DHODH (Homo sapiens)", "remaining DHODH activity (%) Average", "%", 95.89],
  ["CCc1cccc(C)c1NC(=O)CSc1nc2ccccc2c(=O)n1-c1cccc2ccccc12", "recombinant human DHODH (Homo sapiens)", "remaining DHODH activity (%) Average", "%", 72.65]
]}

# next compound below
Asked: Looking for the measured remaining DHODH activity (%) Average of Cc1ccccc1-c1noc(-c2ccc(N3CCC[C@H]3CO)nc2)n1 , can you help?
Given back: 5.94

====

Biological target: recombinant human DHODH (Homo sapiens, UniProt Q02127)
Experiment: Endpoint DHODH enzyme assay (coenzyme Q10, DCIP)
Format: biochemical
Design: purchased Prospecbio ENZ-642
Conditions: compound at 10 µM; Supplementary Table 5, 20,000 compound library
assay-endpoint: remaining DHODH activity (%) Average

Consider the following illustrative entries.
{"columns": ["compound", "assay-endpoint", "test-value"],
 "data": [
  ["COc1cccc(-c2noc(-c3ccc(N4C[C@H]5CC[C@H]4C5)nc3)n2)c1OC (relative stereo) [compound 75901793]", "remaining DHODH activity (%) Average", "5.94%"],
  ["COc1ccc(C2c3[nH]c4ccccc4c3CCN2Cc2nccs2)cc1C (stereo not shown) [compound 90739158]", "remaining DHODH activity (%) Average", "91.88%"],
  ["CC1=C(C(=O)Nc2ccc(F)cc2)C(c2ccccc2OCc2ccccc2)C2=C(CCCC2=O)N1 (stereo not shown) [compound 7705624]", "remaining DHODH activity (%) Average", "104.27%"]
]}

# next compound below
Asked: Looking for the measured remaining DHODH activity (%) Average of COc1ccc(-c2nc(CN3CCCC3c3ccccc3OC)c(C)o2)cc1C (stereo not shown) [compound 47870602] , can you help?
Given back: 10.68%

====

Assay: In vivo pharmacokinetic parameters of (R)-HZ05
Design: species or system C57B1/6N mice
Conditions: female, C57B1/6N, mouse, plasma, po; mice; p.o, dose 50 mg kg-1
assay-endpoint: Cmax

Asked: Looking for the measured Cmax of O=C(N[C@@H]1CCCc2c1cnn2-c1ccccc1F)c1onc2c1CCCC2 [(R)-HZ05] , can you help?
Given back: 7.5 µM

====

Assay: In vivo pharmacokinetic parameters of (R)-HZ05
Parameters: species or system C57B1/6N mice
Details: female, C57B1/6N, mouse, plasma, iv; mice; i.v, dose 5 mg kg-1
assay-endpoint: Tmax

Asked: Looking for the measured Tmax of O=C(N[C@@H]1CCCc2c1cnn2-c1ccccc1F)c1onc2c1CCCC2 [(R)-HZ05] , can you help?
Given back: 4.8 min

====

Experiment: In vivo pharmacokinetic parameters of (R)-HZ05
Design: species or system C57B1/6N mice
Settings: female, C57B1/6N, mouse, plasma, iv; mice; i.v, dose 5 mg kg-1
assay-endpoint: AUC(0-inf) (µM·h)
Enter your answer as a number in µM·h; do not include the unit.

Asked: Looking for the measured AUC(0-inf) of O=C(N[C@@H]1CCCc2c1cnn2-c1ccccc1F)c1onc2c1CCCC2 [(R)-HZ05] , can you help?
Given back: 2.4

====

# remaining activity at 10 µM annotations
Molecular target: recombinant human DHODH (Homo sapiens)
Test: Endpoint DHODH enzyme assay (coenzyme Q10, DCIP)
Assay type: biochemical
Set-up: purchased Prospecbio ENZ-642
Details: compound at 10 µM; Supplementary Table 6, 30,000 compound library
Enter your answer as a number in %; do not include the unit.

Consider the following illustrative entries.
{"columns": ["compound", "remaining activity at 10 µM, %"],
 "data": [
  ["CC(C)NC1CCCc2c1[nH]c1ccc([N+](=O)[O-])cc21 (stereo not shown)", 90.2],
  ["COc1cc(C=C2N=C(SC)SC2=O)cc(Br)c1OCc1ccccc1", 78.8],
  ["c1ccc(OCCNc2ccc3ccccc3c2)cc1", 66]
]}

Asked: // lookup remaining activity at 10 µM | system=recombinant human DHODH (Homo sapiens) | key= O=c1[nH]c(C=Cc2ccccc2)nc2sc3c(c12)CCCC3
Given back: 98.4
